biological target: Fes (UniProt P07332); assay: phosphorylation enrichment, bacterial display (enrichment ratio); higher = better substrate or ligand; peptides without Tyr show the background;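 also: 11-residue human phosphosite peptides and single-mutation variants displayed on the E. coli surface, counted by deep sequencing, each peptide's frequency after selection divided by its frequency in the unselected input library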;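 also: frequency after pTyr selection over input frequency; kinase dosed for 20-30% of maximal phosphorylation in three min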
Sequence (P07332 whole entry, looked up): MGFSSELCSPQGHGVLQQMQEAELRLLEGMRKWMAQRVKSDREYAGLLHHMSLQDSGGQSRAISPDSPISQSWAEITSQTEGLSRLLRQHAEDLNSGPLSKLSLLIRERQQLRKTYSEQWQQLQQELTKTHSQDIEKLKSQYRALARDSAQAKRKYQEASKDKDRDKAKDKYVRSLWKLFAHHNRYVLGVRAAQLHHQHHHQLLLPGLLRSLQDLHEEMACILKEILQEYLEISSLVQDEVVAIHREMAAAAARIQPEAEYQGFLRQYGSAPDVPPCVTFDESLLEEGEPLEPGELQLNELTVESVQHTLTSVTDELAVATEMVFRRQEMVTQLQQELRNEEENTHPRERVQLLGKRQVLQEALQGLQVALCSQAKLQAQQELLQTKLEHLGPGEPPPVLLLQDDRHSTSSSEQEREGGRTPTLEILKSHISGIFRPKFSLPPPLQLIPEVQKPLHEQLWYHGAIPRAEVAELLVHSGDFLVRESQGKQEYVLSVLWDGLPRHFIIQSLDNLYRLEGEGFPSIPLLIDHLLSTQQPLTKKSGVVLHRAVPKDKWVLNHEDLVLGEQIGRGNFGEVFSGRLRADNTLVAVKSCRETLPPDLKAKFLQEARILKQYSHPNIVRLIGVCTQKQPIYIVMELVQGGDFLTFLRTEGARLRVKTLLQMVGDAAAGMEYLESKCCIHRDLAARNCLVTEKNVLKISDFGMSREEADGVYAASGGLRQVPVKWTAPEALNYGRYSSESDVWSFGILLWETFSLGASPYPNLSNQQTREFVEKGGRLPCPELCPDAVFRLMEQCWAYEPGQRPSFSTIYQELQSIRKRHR
TEST_READOUT: phosphorylation enrichment
Number only, no unit.

{"SEQUENCE_CHAIN": "PESIMYRKFTT [NTRK3_Y744]", "phosphorylation enrichment": 0.789}
{"SEQUENCE_CHAIN": "TGNGFYFRVFS [MYBPC3_Y1136_I1131T_YF]", "phosphorylation enrichment": 1.33}
{"SEQUENCE_CHAIN": "ADARMCGVLPW [PLP1_Y207_Y207C]", "phosphorylation enrichment": 1}

## Task For the sequence HRAVEYLLTGI [RAD23A_Y197] , give its measured phosphorylation enrichment value.
## Result 1.02
